Test system: L5178Y
Experiment: Cytotoxicity, 50% inhibition of growth of L5178Y cells in vitro
Assay type: cell-based
Conditions: Mus musculus, 96 hrs. incubation at 37° C., read-out: Cytoxicity ID50
Measured Quantity: IC50 (mg/L)

# Compound, Lt Gt Eq, Recorded Result
data = [
    ("Nc1ccn([C@@H]2O[C@H](CO)[C@@H](O)[C@@H]2F)c(=O)n1 [IVa, reference compound]", "=", 0.05),
    ("O=c1[nH]c(=O)n([C@@H]2O[C@H](CO)[C@@H](O)[C@@H]2F)cc1F [Vb]", "=", 1),
    ("Cl.Nc1nc(=O)n([C@@H]2O[C@H](CO)[C@@H](O)[C@@H]2F)cc1I [IVe]", "=", 48),
    ("O=c1ccn([C@@H]2O[C@H](CO)[C@@H](O)[C@@H]2F)c(=O)[nH]1 [Va]", ">", 10),
    ("O=c1[nH]c(=O)n([C@@H]2O[C@H](CO)[C@@H](O)[C@@H]2F)cc1I [Ve]", "=", 0.9),
    ("Nc1nc(=O)n([C@@H]2O[C@H](CO)[C@@H](O)[C@@H]2F)cc1Cl [IVc]", "=", 1.4),
    ("Nc1nc(=O)n([C@@H]2O[C@H](CO)[C@@H](O)[C@@H]2F)cc1F [IVb]", "=", 0.5),
    ("O=c1[nH]c(=O)n([C@@H]2O[C@H](CO)[C@@H](O)[C@@H]2F)cc1Cl [Vc]", "=", 1.4),
    ("O=c1[nH]c(=O)n([C@@H]2O[C@H](CO)[C@@H](O)[C@@H]2F)cc1Br [Vd]", "=", 0.9),
]
